These measurements were taken from patent EP0764149B1.

- tested_system: farnésyltransférase humaine (Homo sapiens, UniProt P49354+P49356)
- Construct: farnésyltransférase humaine purifiée à partir de cultures de cellules THP1; endogenous in cells; host or cells: THP1 cell cultures (enzyme purified from them)
- assay_remarks: Farnesyltransferase inhibition: transfer of (3H) farnesyl from (3H) FPP to p21 H-Ras
- Assay type: biochemical
- experimental_parameters: unit inferred; read-out: Activité inhibitrice IC50
value_type: IC50 (nM)

COC(=O)[C@H](CCSC)NC(=O)c1cccc2cc(NC[C@@H](N)CS)ccc12 80
CSCC[C@H](NC(=O)c1cccc2c(NC[C@@H](N)CS)cccc12)C(=O)OCCS(=O)(=O)c1ccccc1 21
COCCOCCOC(=O)[C@H](CCSC)NC(=O)c1cccc2c(NC[C@@H](N)CS)cccc12 70
CSCC[C@H](NC(=O)c1cccc2c(NC[C@@H](N)CS)cccc12)C(=O)O 5.6
CCCC[C@H](NC(=O)c1cccc2c(NC[C@@H](N)CS)cccc12)C(=O)O 69
CSCC[C@H](NC(=O)c1cccc2c(NC[C@@H](N)CS)cccc12)C(=O)OCc1ccccc1 100
CSCC[C@H](NC(=O)c1cccc2cc(NC[C@@H](N)CS)ccc12)C(=O)O 1.8
CSCC[C@H](NC(=O)c1cccc2c(NC(=O)[C@@H](N)CS)cccc12)C(=O)O 48
